# system: Metabotropic glutamate receptor 3 (Rattus norvegicus) (UniProt P31422)
# Sequence (P31422 23-879 limits assumed): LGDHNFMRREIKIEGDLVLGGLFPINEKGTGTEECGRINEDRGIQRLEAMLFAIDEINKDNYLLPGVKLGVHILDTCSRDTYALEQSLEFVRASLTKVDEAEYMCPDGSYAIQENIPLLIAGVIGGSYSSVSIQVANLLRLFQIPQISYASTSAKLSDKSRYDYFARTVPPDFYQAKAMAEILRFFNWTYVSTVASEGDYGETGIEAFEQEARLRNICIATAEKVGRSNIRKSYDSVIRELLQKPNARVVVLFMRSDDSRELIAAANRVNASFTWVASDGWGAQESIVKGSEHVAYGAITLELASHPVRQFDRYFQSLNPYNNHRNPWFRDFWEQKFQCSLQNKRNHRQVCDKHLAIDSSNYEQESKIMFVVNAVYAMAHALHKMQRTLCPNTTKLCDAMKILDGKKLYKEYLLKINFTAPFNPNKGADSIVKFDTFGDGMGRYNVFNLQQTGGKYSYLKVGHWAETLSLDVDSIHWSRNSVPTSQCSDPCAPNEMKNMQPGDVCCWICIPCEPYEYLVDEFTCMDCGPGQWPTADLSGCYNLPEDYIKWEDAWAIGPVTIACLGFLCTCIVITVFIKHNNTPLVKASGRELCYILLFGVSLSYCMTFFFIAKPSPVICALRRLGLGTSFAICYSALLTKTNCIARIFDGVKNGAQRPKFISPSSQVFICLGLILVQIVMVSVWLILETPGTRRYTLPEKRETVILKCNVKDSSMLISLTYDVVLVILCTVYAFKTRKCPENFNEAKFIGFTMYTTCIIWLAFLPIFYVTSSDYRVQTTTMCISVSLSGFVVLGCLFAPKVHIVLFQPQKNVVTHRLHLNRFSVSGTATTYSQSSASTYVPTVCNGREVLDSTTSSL
# test_summary: Positive allosteric modulator activity at rat mGlu3 receptor transfected in GIRK channel overexpressing cells assessed as potentiation of glutamate-induced response by thallium mobilization assay relative to glutamate
# Set-up: concentration or dose not given beside the values
# cond: filed as positive allosteric modulator
quantity_name: Activity (%)

> print(dat)
                              record.smiles                                    system  result.units  value
1  COc1ccc(C(=O)O)cc1O[C@@H](C)COc1ccc(C(=O)CC(C)(C)C)c(O)c1C  Metabotropic glutamate receptor 3 (Rattus norvegicus) (UniProt P31422)             %     91
2  Cc1c(OC[C@@H](C)COc2ccc(C(=O)O)c(F)c2)ccc(C(=O)CC(C)(C)C)c1O  Metabotropic glutamate receptor 3 (Rattus norvegicus) (UniProt P31422)             %     86

1: COc1cc(C(=O)O)ccc1OC[C@H](C)COc1ccc(C(=O)CC(C)(C)C)c(O)c1C
2: Cc1ccc(C(=O)O)cc1OCCCCOc1ccc(C(=O)CC(C)(C)C)c(O)c1C
-- ask Of 1 and 2 , which carries the smaller reported Activity figure? Could you answer with the label of the item you picked?
-- reply 1

* * *

# system: Metabotropic glutamate receptor 2 (Rattus norvegicus) (UniProt P31421)
# test_summary: Positive allosteric modulator activity at rat mGlu2 receptor transfected in GIRK channel overexpressing cells assessed as potentiation of glutamate -induced response by thallium mobilization assay relative to glutamate
# Design: concentration or dose not given beside the values
# cond: filed as positive allosteric modulator
quantity_name: Activity (%)

1: Cc1cc(OC[C@H](C)COc2ccc(C(=O)CC(C)(C)C)c(O)c2C)ccc1C(=O)O
2: Cc1c(OCCCCOc2ccc(F)c(C(=O)N(C)C)c2)ccc(C(=O)CC(C)(C)C)c1O
-- ask Of 1 and 2 , which carries the smaller reported Activity figure? Could you answer with the label of the item you picked?
-- reply 2

* * *

# system: Metabotropic glutamate receptor 2 (Rattus norvegicus) (UniProt P31421)
# test_summary: Positive allosteric modulator activity at rat mGlu2 receptor transfected in GIRK channel overexpressing cells assessed as potentiation of glutamate -induced response by thallium mobilization assay relative to glutamate
# Set-up: concentration or dose not given beside the values
# cond: filed as positive allosteric modulator
quantity_name: Activity (%)

> print(dat)
                              record.smiles  result.units  value
1  Cc1c(OCCCCOc2ccc(F)c(C(N)=O)c2)ccc(C(=O)CC(C)(C)C)c1O             %    107
2  COc1cc(OC[C@H](C)COc2ccc(C(=O)CC(C)(C)C)c(O)c2C)ccc1C(=O)O             %     94
3  COc1cc(OCCCCOc2ccc(C(=O)CC(C)(C)C)c(O)c2C)cc(C(=O)O)c1             %    116
4  Cc1c(OC[C@H](C)COc2ccc(F)c(C(=O)O)c2)ccc(C(=O)CC(C)(C)C)c1O             %    114
5  COc1ccc(C(=O)O)cc1OC[C@@H](C)Oc1ccc(C(=O)CC(C)(C)C)c(O)c1C             %    114

* * *

# system: Metabotropic glutamate receptor 2 (Rattus norvegicus)
# Sequence (P31421 whole entry): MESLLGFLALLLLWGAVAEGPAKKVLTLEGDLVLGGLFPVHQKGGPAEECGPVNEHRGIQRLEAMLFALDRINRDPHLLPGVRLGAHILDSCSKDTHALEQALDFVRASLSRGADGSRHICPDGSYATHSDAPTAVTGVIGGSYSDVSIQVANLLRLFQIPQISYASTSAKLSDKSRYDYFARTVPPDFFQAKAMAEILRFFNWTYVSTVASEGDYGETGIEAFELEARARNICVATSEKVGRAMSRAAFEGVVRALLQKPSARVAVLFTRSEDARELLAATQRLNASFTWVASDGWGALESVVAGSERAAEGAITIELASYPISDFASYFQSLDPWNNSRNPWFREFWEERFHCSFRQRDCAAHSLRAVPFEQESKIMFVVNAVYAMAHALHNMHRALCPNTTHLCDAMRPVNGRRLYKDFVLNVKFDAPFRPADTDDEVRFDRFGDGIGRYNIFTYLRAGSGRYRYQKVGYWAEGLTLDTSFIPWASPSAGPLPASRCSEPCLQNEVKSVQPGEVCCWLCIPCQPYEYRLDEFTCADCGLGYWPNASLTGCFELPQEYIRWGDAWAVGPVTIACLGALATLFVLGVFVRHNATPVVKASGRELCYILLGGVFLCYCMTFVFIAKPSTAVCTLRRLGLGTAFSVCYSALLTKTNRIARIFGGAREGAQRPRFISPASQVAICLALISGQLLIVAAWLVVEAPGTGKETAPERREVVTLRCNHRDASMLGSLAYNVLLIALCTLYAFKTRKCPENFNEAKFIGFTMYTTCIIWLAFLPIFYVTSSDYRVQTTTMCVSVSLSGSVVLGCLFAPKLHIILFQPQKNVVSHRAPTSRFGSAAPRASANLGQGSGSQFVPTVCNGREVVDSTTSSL
# test_summary: Positive allosteric modulator activity at rat mGlu2 receptor transfected in GIRK channel overexpressing cells assessed as potentiation of glutamate-induced response by thallium mobilization assay
# cond: read-out: EC50
pEC50: −log10 of the molar value.
quantity_name: pEC50

The following compounds have reported results that may help.
> print(dat)
                              record.smiles  quantity.name  value
1  Cc1ccc(OCCCCOc2ccc(C(=O)CC(C)(C)C)c(O)c2C)cc1C(=O)O          pEC50   6.68
2  Cc1c(OCCCCOc2ccc(F)c(C(=O)N(C)C)c2)ccc(C(=O)CC(C)(C)C)c1O          pEC50   5.42

P: COc1ccc(C(=O)O)cc1O[C@@H](C)COc1ccc(C(=O)CC(C)(C)C)c(O)c1C
Q: Cc1c(OC[C@@H](C)COc2ccc(Cl)c(C(=O)O)c2)ccc(C(=O)CC(C)(C)C)c1O
-- ask When P and Q are compared, which has the higher number for pEC50? Could you answer with the label of the item you picked?
-- reply P
